Where do these numbers come from? They come from ChEMBL document CHEMBL2177026.

molecular target: Beta-secretase 1 (Homo sapiens, UniProt P56817); test: Ratio of IC50 for BACE1 in HEK293 cells expressing APP 695 Swedish mutant to Ki for BACE1; assay type: cell-based
Sequence (P56817 whole entry): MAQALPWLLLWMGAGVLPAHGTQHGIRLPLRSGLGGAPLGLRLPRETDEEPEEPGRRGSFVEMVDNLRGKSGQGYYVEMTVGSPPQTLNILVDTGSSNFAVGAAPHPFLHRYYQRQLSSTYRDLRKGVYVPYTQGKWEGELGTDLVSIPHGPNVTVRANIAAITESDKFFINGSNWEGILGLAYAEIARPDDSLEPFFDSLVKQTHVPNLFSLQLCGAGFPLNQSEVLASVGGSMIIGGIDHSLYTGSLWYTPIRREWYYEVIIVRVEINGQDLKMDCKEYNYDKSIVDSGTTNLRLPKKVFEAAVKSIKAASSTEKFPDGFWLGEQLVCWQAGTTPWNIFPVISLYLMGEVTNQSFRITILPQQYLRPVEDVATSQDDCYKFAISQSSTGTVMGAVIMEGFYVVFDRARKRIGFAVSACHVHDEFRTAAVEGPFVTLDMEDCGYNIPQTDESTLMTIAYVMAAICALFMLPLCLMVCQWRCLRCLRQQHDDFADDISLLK
Measured Ratio by item
measured.quantity: Ratio

> print(dat)
                             chemical.string  measured.value
 1  COc1ccc(-c2nsc(C)c2C(=O)/N=C(\N)NCc2cc(Cl)c(NC(C)=O)c(Cl)c2)cc1              62
 2  CCNCC(=O)Nc1c(Cl)cc(CN/C(N)=N/C(=O)c2c(-c3ccc(OC)cc3)nsc2C)cc1Cl               2
 3  COc1ccc(-c2noc(C)c2C(=O)/N=C(\N)NCc2cc(Cl)c(NC(=O)CS(C)(=O)=O)c(Cl)c2)cc1              63
 4  COc1ccc(-c2noc(C)c2C(=O)/N=C(\N)NCc2cc(C)c(NC(=O)c3ccco3)c(Cl)c2)cc1              23
 5  COc1ccc(-c2nsc(C)c2C(=O)/N=C(\N)NCc2cc(Cl)c(NC(=O)CN3CCC3)c(Cl)c2)cc1               2
 6  COc1ccc(-c2nsc(C)c2C(=O)/N=C(\N)NCc2cc(C)c(NC(=O)CN(C)C)c(Cl)c2)cc1               1
 7  COc1ccc(-c2noc(C)c2C(=O)/N=C(\N)NCc2cc(Cl)c(NC(=O)C3CC3)c(Cl)c2)cc1              32
 8  COc1ccc(-c2nsc(C)c2C(=O)/N=C(\N)NCc2cc(C)c(NC(C)=O)c(Cl)c2)cc1              12
 9  COc1ccc(-c2nsc(C)c2C(=O)/N=C(\N)NCc2cc(C)c(NC(=O)c3ccccc3)c(Cl)c2)cc1              13
10  COc1ccc(-c2noc(C)c2C(=O)/N=C(\N)NCc2cc(C)c(NC(=O)C3CC3)c(Cl)c2)cc1              16
11  COc1ccc(-c2nsc(C)c2C(=O)/N=C(\N)NCc2cc(Cl)c(NC(=O)CN(C)C)c(Cl)c2)cc1               4
12  COc1ccc(-c2noc(C)c2C(=O)/N=C(\N)NCc2cc(Cl)c(NC(=O)CN(C)C)c(Cl)c2)cc1               4
